assay_details: Viability qHTS for spleen associated tyrosine kinase inhibitor (SYKi) drug resistant MV4-11 cells (AID 1963824); also: nearly all actives have a fitted effect of over 35% in size
recorded_conditions: SYKi-resistant MV4-11 viability, CellTiter-Glo, 72 h; series mostly up to 45 µM
Records with an inconclusive call do not appear. Calls of active or inactive are those of the source. Calls follow the shape of the dose curve; as a rule, active = well fitted cell-killing curve with a large enough effect; inconclusive = small, poorly fitted or top-dose-only effect, or effect the other way; inactive = no such curve, though single readings can be large or run the other way.
Outcome field: choose from active, inactive

Illustrative cases are given below, each with its answer.
molecule: CNC(=O)c1cc(Oc2ccc3nc(N[C@@H]4CCCC[C@H]4O)sc3c2)ccn1
answer_label: active
//
molecule: C[C@@H]1CC[C@@]2(OC1)OC1CC3C4CC=C5CC(O)CCC5(C)C4CCC3(C)C1[C@@H]2C (some centres undefined)
answer_label: inactive
//
molecule: COC(=O)N[C@H](C(=O)N1CCC[C@H]1c1ncc(-c2ccc(-c3ccc(-c4cnc([C@@H]5CCCN5C(=O)[C@@H](NC(=O)OC)C(C)C)[nH]4)cc3)cc2)[nH]1)C(C)C
answer_label: active

Would you kindly look at the next entry?
Enquiry: Hello, I am checking results. What call was entered for Cc1ccccc1CN1CCn2c1nc1c(c2=O)CN(Cc2ccccc2)CC1 ?
Return: inactive

====

assay_details: Cellular viability qHTS for adrenocortical cancer (ACC) cell line NCI-H295R (AID 1963990); also: nearly all actives have a fitted effect of over 60% in size
recorded_conditions: CellTiter-Glo ATP luminescence, 48 h; series mostly up to 46.1 µM
Results filed as inconclusive are left out. Activity calls are given as the source filed them. Calls come from the whole dose curve; as a rule, active = well fitted cell-killing curve with a large enough effect; inconclusive = small, poorly fitted or top-dose-only effect; inactive = flat fitted curve, though single readings scatter.
Outcome field: choose from active, inactive

Illustrative cases are given below, each with its answer.
compound: CN(C)c1ccc(O)c2c1C[C@H]1C[C@H]3[C@H](N(C)C)C(=O)C(C(N)=O)=C(O)[C@@]3(O)C(=O)C1=C2O
answer_label: inactive

compound: CN1C(=O)CC(c2ccccc2)C1=O (stereo not given)
answer_label: inactive

Enquiry: Hello, I am checking results. What call was entered for CC(C)(C#N)c1cc(Cn2cncn2)cc(C(C)(C)C#N)c1 ?
Return: inactive

Enquiry: Hello, I am checking results. What call was entered for N#Cc1c(N)nc(N)nc1N[C@H](c1nc2c(F)ccc(Cl)c2c(=O)n1-c1cccnc1)C1CC1 ?
Return: active

Enquiry: Hello, I am checking results. What call was entered for COc1nc(OCc2cccc(-c3ccccc3)c2C)ccc1CNCCNC(C)=O ?
Return: active

Enquiry: Hello, I am checking results. What call was entered for CCN(CC)CC(=O)Oc1ccc(NC(C)=O)cc1 ?
Return: inactive

Enquiry: Hello, I am checking results. What call was entered for CCC1(c2ccccc2)C(=O)NCNC1=O ?
Return: inactive

====

assay_details: Quantitative highthroughput screen to assess conditional lethalithy of NOMO1 cells grown in RPMI1640 with dialyzed fetal bovine serum (RPMI+ds) (AID 1963877); also: nearly all actives have a fitted effect of over 30% in size
recorded_conditions: NOMO1 in RPMI+dialyzed FBS viability, ATP luminescence, 48 h; series mostly up to 45.8 µM
Records with an inconclusive call do not appear. The source made the active and inactive calls. The call rests on the fitted dose curve; in most records, active means well fitted cell-killing curve with a large enough effect; inconclusive means small, poorly fitted or top-dose-only effect; inactive means flat fitted curve, though single readings scatter.
Outcome field: choose from active, inactive

Illustrative cases are given below, each with its answer.
compound: CN(CCOc1ccc(CC2SC(=O)NC2=O)cc1)c1ccccn1 (centres undefined)
answer_label: inactive

compound: Cc1ccn(-c2ccc(-c3ncco3)cc2)c(=O)c1-c1ccc2nc(N)ncc2c1
answer_label: inactive

compound: CCNC(=O)[C@H]1O[C@@H](n2cnc3c(N)nc(NCCc4ccc(CCC(=O)O)cc4)nc32)[C@H](O)[C@H]1O
answer_label: inactive

compound: Nc1nc(=O)n([C@H]2C[C@H](O)[C@@H](CO)O2)cc1F
answer_label: active

compound: C=Cc1c(C)c2cc3nc(cc4[nH]c(cc5nc(cc1[nH]2)C(C)=C5CCC(=O)O)c(CCC(=O)OC)c4C)[C@@]1(C)C3=CC=C(C(=O)OC)[C@H]1C(=O)OC
answer_label: active

Enquiry: Hello, I am checking results. What call was entered for O=c1c(O)c(-c2cc(O)c(O)c(O)c2)oc2cc(O)cc(O)c12 ?
Return: inactive

Enquiry: Hello, I am checking results. What call was entered for C[C@]12CC[C@H](O)CC1=CC[C@@H]1[C@H]2CC[C@]2(C)C(c3cccnc3)=CC[C@H]12 ?
Return: inactive

Enquiry: Hello, I am checking results. What call was entered for C=CC(=O)Nc1ccc2ncnc(Nc3ccc(OCc4cccc(F)c4)c(Cl)c3)c2c1 ?
Return: active

Enquiry: Hello, I am checking results. What call was entered for Cc1cn([C@H]2C=C[C@@H](CO)O2)c(=O)[nH]c1=O ?
Return: inactive
